Target: human NKp30 (human) (UniProt O14931)
Sequence (O14931 19-135 limits assumed): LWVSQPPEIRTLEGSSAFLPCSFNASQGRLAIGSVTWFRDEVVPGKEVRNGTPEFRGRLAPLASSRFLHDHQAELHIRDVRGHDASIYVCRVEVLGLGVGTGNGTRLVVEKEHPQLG
Experiment: BLI, ratio to ΔB7-H6_wt
The threshold is 4 fold. Values of KD improvement compared to ΔB7-H6 wt beneath it are tagged MET; values meeting or exceeding it are tagged NOT MET.

INSERT INTO results (binder, category_label) VALUES
  ('ΔB7-H6_S3#28-SEED-PGLALA (bispecific antibody, part only; not given: SEED Fc chains and hu225 EGFR Fab, part only) chain, part: DLKVEMMAGGTQITPLNDNVTIFCNIFYSQPLNITHMGITWFWKSLTFDKEVKVFEFWGDHQEAFRPGAIVSPWRLKSGDASLRLPGIQLEEAGEYRCEVVVTPLKAQGTVQLEVVASPAS', 'MET');

As a next step, examine the binder that follows.
IN: Check if KD improvement compared to ΔB7-H6 wt falls below 4 fold for ΔB7-H6_S3#18-SEED-PGLALA (bispecific antibody, part only; not given: SEED Fc chains and hu225 Fab, part only) chain, part: DLKVEMMAGGTQITPLNDNVTIFCNIFYSQPLNITYMGITWFWKSLTFDKEVKVFEFWGDHQEAFRPGAIVSPWRLKSGDASLRLPGIQLEEAGEYRCEVVVTPYKAQGTVQLEVVASPAS .
OUT: NOT MET
